Origin of values: the NTF2 design screens of Basanta et al. (2020)

Method: protease stability score; higher = more stable; yeast display proteolysis, trypsin and chymotrypsin;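 note: log10 excess protease needed over predicted unfolded state with 0 meaning unfolded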
Given measured protease stability score, output condition met if it is greater than or equal to 0.7 and condition not met if not.

Q. Exam item: decide whether the reported protease stability score for DQDEQRHQMEEVRKAFQRGDNEKFERLADPNVRYQVGDKTYHGREQASKALSDIREQVDHLEIKDYKIHGNKLDINVVVDINGEKHEYRIIVHIHNGRITRYQFQST is at least 0.7.
A. condition met

Q. Is it the case that DEEELTTLAEQLMDIIEQGDKKRFHQLADPNARMDVGDKRYHGREEMAKNLYDLVERVDTISVDSLSARNGRIKIDMRFKVNGQDVKQILVVRADNGTITRVSIETS has protease stability score reaching or exceeding 0.7?
A. condition met

Q. protease stability score >= 0.7 for DDEEDKTLNQKAREALTDNDPDQMMNLFDKDANVDVGEKRVHGREQLRRYMQDLHRMVDHVQVDSVKVDGEKLEFKVTLQYNGRRLKVVFRINYHDGRAKNMHIEFTDEKTLKQFEK ?
A. condition met

Q. Check this sequence for protease stability score at or above 0.7: DEEEEKQLEDIWKENDWQKWANDADPNVRVNIGDETLHGREDLQRWAQLVRKRYDHVKIESVRFHNGRADVEVNVVVDGEQFRYKLTIQLHNGRVKHMKIQATDEQVKTLLDQMRS
A. condition met

Q. Please tell me: is the sequence DEELHEWVKEYLKALQHNDPNQFKRLADPNVRYHVGDKEVHGREEWAKLVEKRRDSMRLEMKSVSIDAQGNKARVRLRFVEEHDGRPKEFEADFDFHVSNGKLVTVKVDEDQ at or over 0.7 in terms of protease stability score?
A. condition not met

Q. # check: protease stability score of DDRDEEKLQEQRKIHENNDEDRRKELVDPNVKFDVGDRHYHGRETNSKKFVDENREMRVEVDIKRVTNDEDHLRFEAHVVIRNNGQPDTKKVRLEQRLDGDKLKMERQEDKR is greater than or equal to 0.7
A. condition not met

----------
Method: protease stability score; higher = more stable; yeast display proteolysis, trypsin and chymotrypsin;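 note: log10 excess protease needed over predicted unfolded state with 0 meaning unfolded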
Class boundaries, taken from values of protease stability score, are as follows: category 1: < 0.2; category 2: ≥ 0.2 and < 1; category 3: ≥ 1

Q. Input DEDKNKEAVERFLHNLENGDWQSLADLADKNAKVQIGDETVSGRESAQNELRKFAERVDHVDYHDMTVQGDKFEVVFQEDHNGRKRKVVAEFRVKNGRFKHVVFDDG ; output its category
A. category 1

Q. Looking at DHDLQKTWKDQAAEALQTGDPREFEKMVDENVNVIYGDKTYHGRKQASNLAQRLQKQIDHIRLHSVSIRGDEVNVDLTVNVNGTEMRYHMTARVHNGKVKELKFDPDFVRKAQK , which class would you pick?
A. category 1

Q. Which class holds DEDAFRVWRRLLSAIRDGDEDKVRNQADENATATIGDKTWHGMTTLAHELVHEARNLRFTQRITHYSVDNGRVNADYRFTKNENGRPQEDRVLVRFVAHNGQLKSVHNTKIS ?
A. category 1

Q. Lab note: sort DHSEVTDVFRKLVKVLRTGDESTAAELFDEDVEFEIGDKTYKGREEAHDLLRQFQDMADHVQLNDVRVQGNKVHAEFRADVNGRELHFTQSAEVHNGKIKKVVIRFTNEEQYREIHS into the matching protease stability score band.
A. category 3

Q. For the record DEEKEREMFKEFLNAFKSGDPDKLRKRMRQNVTLVYGDKSLHGRERAAKWFSELVKRVDHIEIESVKTDENHFDADVHLNVNGQNVIVHIRAKVENGRIVKVQYEYRDESQRRKLEK , report the class its protease stability score corresponds to.
A. category 3

Q. Any idea which band DEEEAKKVVETAVKYLQKGNVKQLKDIGHEGVDYQVADNKKKGPDAIEDVLRYLEKLGVRMEVKKQEVKGDTAHTVVDYQQGDTKVRATVEADIQGGRIDRVQVNVPETLKKILKHG is in?
A. category 1

Q. # bin lookup: classify DEEFNKVLEEALHAMHKGDPDKLNKNLDEDAKIKYGDKTVHGREDATKLLETIVKNARIQIDSFRVTSRGEKAVADVRLRYRINGKPIDVKMIIYAKNDNGRIKEVEYKIDPDELRKVEG by its protease stability score
A. category 3

Q. Categorize the following entry: DEENMEVYQTQLKVEQRGNEEELVKLIDPNAEVRIGDKQVKGRENIAHTIKQETDKMERKIESLNLSAHNGEIHIKATVVQTHNGEPRTDSYVMRIHLHNGRLKQMDVHKSN
A. category 2

Q. GET /class?item= DQRDQRKANEIIKTNDESKLAKQADKDARLVVGNKEYHGKEQVQHFADQLEKMFDHLEITHYDSHGENFNVVAVMDVNGQRVQYYWRFRVHNGQFKYIEFRARDEETQKTIHRLLG
A. category 2

Q. Using the reported protease stability score, which band applies to DEEKNREVKRFLDVMQKGDEDKLRRNVDPNVRFHIGDKTVQGHESFVEQLKTEKQHLRLRIDIKSVRATGNDIEVTAKVEYEHNGQPQHKELQIDVKMHNGRVKTIRYTRRG ?
A. category 2

----------
Could you please report measured protease stability score for the items listed next?
Method: protease stability score; higher = more stable; yeast display proteolysis, trypsin and chymotrypsin;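 note: log10 excess protease needed over predicted unfolded state with 0 meaning unfolded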
# answer = number (no unit)

Q. Recorded protease stability score for DEKKLQELLKKAFEAALNGDEDKLRKLLAPNVKYKYGDTEREGEDAVRLVMQIVKHIGVEVKKQEEEVKGGRMRAVFRYDNGSQTVQTTAEVQYEGDKVKEVRVEITDEIKKVMQRG , please?
A. 1.17

Q. Fill in the blank: the reported protease stability score of DERDVKSVIDLVKTGDFDQMVRNADKDVKIRIGDKHVHGREQASEAMKKFTDQIDHYEVKSVNVNNGRVIVEAVFVVNGEKITVTVIVEAQNGRITHVEWRYRDEHDKKLLRKILG is ____.
A. 1.47

Q. Could you tell me which protease stability score is on file for DDEARNLVSEWLKAVETGDPDRVSQNMDPNASYHIGEWNVTGRETVNKLLDDVKTRLRVQFNIQHLDANGDTVDLRAMVLYEHNGKPDTKVYHFKFQQHNGKLVDVRATEDG ?
A. 0.736

----------
Method: protease stability score; higher = more stable; yeast display proteolysis, trypsin and chymotrypsin;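 note: log10 excess protease needed over predicted unfolded state with 0 meaning unfolded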
Output Y for protease stability score not less than 0.1; output N otherwise.

Q. I'd appreciate it if you could say whether DDDEMRELIKSIEEVLTDGDPDEFLKQIDPNAKAQYGDTRVSGSEEIRKMAEKFSDRVDHVDVRDIKVSGDTATFDMQIDHNGRNDTVIMIVEAHNGKVKHVQYHKG has protease stability score at least equal to 0.1.
A. Y

Q. Item DEKTERDQARKLIHILEEGDEEKMANLMDENAHIQVGDTTYSGREDVRRFMQSWSERVDRFSVHSITAHNGKIDIDVEFVVNGRKVQMDLRFHVENGRIKTDKFQFRDEDKFKDMQS with protease stability score of 0.1 or above?
A. Y

Q. Test whether the sequence DESAHKLVHDMMDAIRQNNPERVEQLADPNVKIEYGDEVIQGRENVSTTMKEILEKQRVEYNFKRVDDHNGQVRADVEVEVEHNGEPHRDKLIVHAERHNGRIRYVELQHDG records protease stability score of 0.1 or higher.
A. N

Q. Determine whether this sequence has protease stability score no lower than 0.1: DETTEASKLLHRINTAWQTNDPDQFQEQFDENARAKVGDKTVHGRKNMNELLKRLVENVDHIDVQVVDFRVDGDKLVIYFRVQNEHNGKHEHDQYAIWAVDRNGHVRAIEWHES
A. Y

Q. Decide: protease stability score of DDDNKRKAETYMKNLHTGDPDKATEYMDKDAKIQYGDKSVHGRHQWREEIERRRKELRFTVDLHRLHVQGEKFDLKYIEHNNHNGNPKSQSASVTYRMHNGRVHSIQYSYTK >= 0.1?
A. N

Q. Item DEENLDAARRLIDALKNNDPDHAMENADKDVRVHIGDWHVHGREDMSRLIKELVDEMRVDVKDVKTRKDGETAVITIDAVFHVNGEPKRDTFTMNVKAHNGHVQRIHARVSEEDVRKLKQ with protease stability score of 0.1 or above?
A. N

----------
Give protease stability score for every item shown.
Method: protease stability score; higher = more stable; yeast display proteolysis, trypsin and chymotrypsin;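 note: log10 excess protease needed over predicted unfolded state with 0 meaning unfolded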
Form rule: numeric answer, no unit written next to it.

Q. Could you share which protease stability score value was measured for DDREIKELLQLMLDAIRDGNEQSASKMADENARVKVGDKKVHGREQIQELVKELKKNVDHFTVNDIKQQGDKASADAEMDVNGVTVHMEVRVQVHNGHVKHAEMTYRDEDQKRQFHQ ?
A. -0.433

Q. GET /values?readout=protease stability score&item= DENTQKQIAKKVVDVIRNGDPKQLHDLFDPNARLNIGDRTYTGSKEFQKHAETLRRNVDHIQVKSIDVQGEHIHINMVLNVNGKQYNANFRVDVHNGKAKQMSVEYRDKEEYKTLKR
A. 0.362

Q. Any idea what protease stability score was measured for DEDANHRFKDQVRAIKTGDSKRVEELVDPNVHNHVGEWRVHGSTHWATLAKQVRDEMRVDLDIKSVENSGNKLNIDANVIIDHNGKPHRNQVNWNVNNHNGRIQEASAKKSN ?
A. -0.484

Q. # lookup: protease stability score of DEQERAQEALRRFLRVFQEGDPDRARQQADKDVQMVVGDKEYEGREQVSRAIESLRERVDEFHITVRRITVSGNRVVVDAKLKLNINGKEDDVTLKLVIDVSGDKISIKRVEVR
A. 1.12

Q. Report protease stability score for DDDEVRKLVHNLERGNFDDFVRQADPNAKVTIGNKTYHGREDIKSAYKKLKDQVDHLEVKRVRHHNGRLNVERIVVVNGRNIRYHVRLTIHNGRIKHIRYQATNEEQQKWMDEVIK please.
A. 0.559

Q. // query protease stability score value for entry DDTKTARELVENLNEAFEKGDEDQFVSNLPPDARIEVGDRQVHGREQLKKWFDEMVERFDHMRIEVRHVEHHNGDVRVSARMQWQHNGREQSDSVEVVFVNDNGRLKMHVLRYG
A. 1.5

Q. I have this sequence here, EEELAKSYVELLKQLSEGNEENLKELMDPNARIEVGDKELHGREDIVNTWSKEAREIRIHYEIKHIEQEPGRVTIHARVEVQHDGQPSSKDFNVVFTAKNGRLTKMTVQDDG , and I need its recorded protease stability score.
A. 0.767

Q. For DEEMNKRAKRLVDVLRTGDFREFLEMVDPNARVQIGDKSWHGMEDYVHDLKEKRDQIKMHYEVKHMTAHDGRAHLEIDAEANVNGQPLSFSFTLHLQFQNGRVTHAEYQLDEDRLRKLEQ , what is its reported protease stability score?
A. 0.911

Q. Looking for the measured protease stability score of DDRTKMQELLDKLREAAEDGDRRKVHQLFDENARFEIGDTEFHGMTSAAKRLAEEWKRHDHVQFSVREIRVEPGRFVVHMQERNSHNGKSDSKNVVMTVTKSNGQIRATKVKVR , can you help?
A. 0.387

Q. Which protease stability score reading was recorded for the sequence DEEQVTKAKNLLENWKTNNPEEVKKLADPNARAQIGDQVIHGMDKYVTFLHKQRSKMRFELHIRSMTADNGRVKMTFDHVVDHNGRPDKNDARMSVQFENGKIKELVIQKDK ?
A. -0.295

Q. Fill in the blank: the reported protease stability score of EEENVKVAQEIINIEDRGDSDQIHRLFDPNAHWTVGDQDIHGRETWLTKFRKEREEMRVRFRTLHFNAHNGRAVVRVEQEVTHNGTPTTKVYIMKVEFRNGKVKSIVFQSDG is ____.
A. 0.235
